System: SF-295 CNS
EXPERIMENT SUMMARY: NCI-60 one-dose screen, 48 h
CONDITION LABEL: 10 µM unless noted
This is part of a sample that, as a whole, favours compounds with a hit. Of some 83,000 tested, about 20% had one in any assay. Calls of active or inactive are those of the source. How the source made its calls: active means growth percent below 10; inactive means the rest.
# output must be one of y (active), n (inactive)

What is the recorded call for this molecule in the test? CCCCC/C(=C\c1ccccc1)C1OC(C)C(C)O1 (centres undefined) n

Next: Nc1nc2c3ccncc3cc(-c3cccc(Cl)c3)c2c2cnccc12 n

Next: CCN(CC)c1ccc(/C=C/c2cc(C)c3ccccc3n2)cc1 n

Next: COc1cc(/C=N/Nc2ncnc3c2c(C)nn3-c2ccc(F)cc2)ccc1O n

Next: Cn1cc(-c2csc(-c3cn(CCCN4CCCCC4)c4ccc(Br)cc34)n2)c2cccnc21 n

Next: COC(=O)[C@]12CC[C@@H](C(=O)/C=C/c3cccnc3)[C@@H]1[C@H]1CC[C@@H]3[C@@]4(C)C/C(=C/c5cccnc5)C(=O)C(C)(C)[C@@H]4CC[C@@]3(C)[C@]1(C)CC2 y

Next: Cn1c2c(c3ccc(Cl)cc31)-n1cccc1C2=O n

Next: CCCCC[C@H]1CC=C2C(=O)C(Cl)=C[C@@H]2CC=CCCCC(=O)O[C@@H](CCCCC)CC=C2C(=O)C(Cl)=C[C@@H]2CC=CCCCC(=O)O[C@@H](CCCCC)CC=C2C(=O)C(Cl)=C[C@@H]2CC=CCCCC(=O)O1 n

Next: COc1ccc(C2CC(=O)c3c(nc4ccc(Cl)cc4c3N)C2)cc1 (centres undefined) n

###

System: MDA-MB-435 melanoma
EXPERIMENT SUMMARY: NCI-60 one-dose screen, 48 h
CONDITION LABEL: 10 µM unless noted
Method: Growth inhibition of the MDA-MB-435 human Melanoma tumor cell line is measured as a screen for anti-cancer activity. Cells are grown in 96 well plates and exposed to the test compound for 48 hours. Compounds are tested at a single concentration, which is 10^-5 M for most compounds. The reported endpoint is percent growth (GI% or GIPRCNT), where numbers from 0 - 100% represent growth inhibition, and numbers from -100% - 0 represent cell death. […]
About 83,000 compounds went through this panel and 20% of them were active in at least one assay; those are over-represented in the sample as a whole. Activity calls are given as the source filed them. How the source made its calls: active means growth percent below 10; inactive means the rest.
# output must be one of Y for active, N for inactive

What is the recorded call for this compound in the test? O=C1NC(c2ccc(Cl)c(Cl)c2)=C/C1=C\c1ccccc1 N

Next: Cn1cc(-c2csc(-c3cn(CCNC(=O)OC(C)(C)C)c4ccc(F)cc34)n2)c2cccnc21 N

Next: COc1ccc(/C(=C\c2ccc3c(c2)OCO3)C(=O)Nc2nc3ccccc3s2)cc1OC N

Next: Cc1cc(Cl)c2c(N(C)C)cccc2n1 N

Next: COc1cc2c(cc1-c1c(C)noc1C)ncc1nc(C3CCC(F)(F)CC3)n([C@@H](C)COC(F)F)c12 N

Next: Cn1c2c(Cl)c(Cl)ccc2c2c(C#N)c[nH]c(=O)c21 N

Next: CCCCn1c(-c2ccc(O)cc2)cn2c3c(=O)[nH]c(=O)n(C)c3nc12 Y

Next: COC(=O)[C@]12CC[C@@H](C)[C@H](C)[C@@H]1C1=CC[C@@H]3[C@@]4(C)C[C@@H](OC(C)=O)[C@H](O)[C@@](C)(CO)[C@@H]4[C@H](O)C[C@@]3(C)[C@]1(C)CC2 Y

Next: COc1ccc(-n2c(/C=C/c3ccc(O)c(OC)c3)cc(/C=C/c3ccc(O)c(OC)c3)nc2=O)cc1 N

###

Test system: NCI-H522 lung
EXPERIMENT SUMMARY: NCI-60 one-dose screen, 48 h
CONDITION LABEL: 10 µM unless noted
The panel holds about 83,000 compounds, 20% with a hit somewhere; the sample as a whole holds those more often. Active and inactive are the calls of the source. How the source made its calls: active means growth percent below 10; inactive means the rest.
# output must be one of Yes for active, No for inactive

What is the recorded call for this compound in the test? COc1ccc(C(=O)c2cc(OC)c(OC)c(OC)c2)cc1/C=C/C(=O)c1cc(OC)c(OC)c(OC)c1 No

Next: O=c1c(CNc2ccc(S(=O)(=O)Nc3ncccn3)cc2)coc2ccccc12 No

Next: CC1(C)NC2=C(C(Nc3cccnc3)N1)C(c1ccc([N+](=O)[O-])cc1)C(C(=O)c1ccc(N=[N+]=[N-])cc1)O2 (stereo unspecified) No

Next: COc1ccc(C2c3ccccc3NC(=O)N2C2CCN(C)CC2)c(OC)c1 (stereo unspecified) No

Next: CCN1CCN(C(=O)[C@]23CC[C@@H](C)[C@H](C)[C@H]2C2=CC[C@@H]4[C@@]5(C)C/C(=C/c6cccc(OC)c6OC)C(=O)C(C)(C)[C@@H]5CC[C@@]4(C)[C@]2(C)CC3)CC1 No

Next: C#Cc1cccc(NC(=O)C2CCCN(C(=O)CCl)C2)c1 (stereo unspecified) Yes

Next: CC(C)c1cc(C(=O)O)c(O)c(C(C)C)c1.CC(C)c1cc(C(=O)O)c(O)c(C(C)C)c1.[Mn] No

Next: Cc1ccc(-c2nc3ccc(Cl)cc3c(=O)n2N2C(=O)CSC2c2ccccc2Cl)cc1 (stereo unspecified) No

Next: Nc1ccccc1NC(=O)c1ccc(CN2CCC/C(=C\c3ccccn3)C2=O)cc1 No

Next: COc1ccc(/C(=C\c2ccc3c(c2)OCO3)C(=O)Nc2nc3ccccc3s2)cc1OC No

Next: COc1cccc(-c2nn(-c3ccccc3)cc2-c2ccnc(NCCNS(=O)(=O)c3ccc(C(F)(F)F)cc3)c2)c1 Yes

Next: O=S(=O)(NCCCNc1cc(-c2cn(-c3ccccc3)nc2-c2cccc(O)c2)ccn1)c1ccc(F)cc1 No

Next: CC(=O)O[C@H]1CC[C@@]2(C)C(=CC[C@@H]3[C@@H]2CC[C@]2(C)C(=O)N(O)C(=O)C[C@@H]32)C1 No

Next: C=C1C(=O)O[C@H]2[C@H]1CC/C(COC(=O)NCCc1c[nH]c3ccccc13)=C\CC[C@@]1(C)O[C@@H]21 Yes

Next: C=C(C)[C@@H]1CC[C@]2(C)[C@H](CC[C@@H]3[C@H]4[C@H]5OC[C@@]4(CCC5(C)C)CC[C@]32C)[C@@]1(C)CCCN No

Next: C/C(=N\NC(=O)C(C)SC(C)C(=O)N/N=C(\C)c1cccnc1)c1cccnc1 (stereo unspecified) No

Next: O=C(NCN1C(=O)c2cccc3cccc(c23)C1=O)N1CCC(Cc2ccccc2)CC1 No

Next: OCC1OC(n2cnc3c(Cl)ncnc32)CC1O (stereo unspecified) No

Next: N#Cc1cnc2cc(OC[C@@H](O)CO)c(NC(=O)C3CCCC3)cc2c1Nc1ccc(OCc2cccc(F)c2)c(Cl)c1 Yes

Next: CCCCC[C@H]1C/C=C2/C(=O)C=C[C@@H]2C/C=C\CCCC(=O)O[C@@H](CCCCC)C/C=C2/C(=O)C=C[C@@H]2C/C=C\CCCC(=O)O1 Yes

Next: CCOC(=O)C/C(=C\c1ccccc1)C(C)=O No

Next: O=C(CI)Nc1ccc(O)c2ccccc12 Yes

Next: Cn1c2c(Cl)c(Cl)ccc2c2c(C#N)c[nH]c(=O)c21 No

Next: COc1ccc2c(c1)c(-c1nc(-c3c[nH]c4ncccc34)cs1)cn2CCCN1CCCCC1 No

Next: N=C(N)c1ccc(S(N)(=O)=O)cc1 No

Next: COc1ccc2c(c1)c(-c1nc(-c3cn(C)c4ncccc34)cs1)cn2CCCN1CCCCC1 No

Next: NC1(N)C=CC2=C(C=C1)C1(N)C3=C(C=CC(N)(N)C=C3)N2C2(N)C3=C(C=CC(N)(N)C=C3)N1C1=C2C=CC(N)(N)C=C1 No

Next: CCOC(=O)C1OC1(c1ccccc1)c1ccccc1 (stereo unspecified) No

Next: COC(=O)[C@]12CC[C@@H](C)[C@H](C)[C@@H]1C1=CC[C@@H]3[C@@]4(C)C(c5ncon5)=C[C@@](C)(CO)C4=CC[C@@]3(C)[C@]1(C)CC2 Yes

Next: N#CC1C(=N)Cc2ccccc2-c2ccccc21 (stereo unspecified) Yes

Next: Cc1cc2nc3c4cc(N)ccc4n(CCN(C)C)c3nc2cc1C No

Next: Cc1nn(-c2ccc(Cl)cc2)c(=O)n1CCn1cnc2ccccc21 No

Next: Cc1cccc2c1NC(=O)[C@@]21[C@H](C(=O)c2ccccc2)[C@]2(C(=O)Nc3ccccc32)[C@H]2CCCN21 No

Next: O=C(/C=C/c1cccc2ccccc12)Nc1ncc(Cc2ccccc2)s1 No

Next: Cn1cc(-c2csc(-c3cn(CCCN4CCCCC4)c4ccc(Br)cc34)n2)c2cccnc21 No

Next: O=C(N/N=C\c1c(O)ccc2ccccc12)C1CC1 No

###

Test system: NCI-H522 lung
EXPERIMENT SUMMARY: NCI-60 one-dose screen, 48 h (100 = growth as untreated, 0 = no growth, -100 = all killed)
CONDITION LABEL: 10 µM unless noted
This is part of a sample that, as a whole, favours compounds with a hit. Of some 83,000 tested, about 20% had one in any assay.
REPORTED PROPERTY: growth (%)
Give the number; % is assumed, so skip it.

Recorded growth of COc1ccc2[nH]c(-c3ccc(Cl)cc3)cc(=O)c2c1 , please. 86.7

Next: COc1cc(-c2c(C#N)c(-c3cccs3)nc3c2c(-c2ccccc2)nn3-c2ccccc2)ccc1O 69.8

Next: C=C1CC[C@@H](C(=O)OC)Cc2nc(C)ccc21 86.4

Next: Oc1ccc(Nc2ccccc2)cc1 92.2

Next: O=C(Nc1ccc(/C=C2\SC(=O)N(Cc3ccc(OC(F)(F)F)cc3)C2=O)cc1)c1ccc(Cl)c([N+](=O)[O-])c1 83
